Tested on: genomic DNA purified from male human peripheral blood mononuclear cells
assay: Biochemical method for potential off-target genomic sites cleaved by Cas9 and B2M guides
test-settings: guide concentration of 64 nM
reported-metric: off-target Site_Count
Just the number, please, no unit attached.

stdin: # get_value(readout='off-target Site_Count', item= CR000443: gRNA targeting B2M; targeting domain CGCGAGCACAGCUAAGGCCA (SEQ ID NO: 135); sgRNA SEQ ID NO: 172 (nucleic acid, listed as RNA, chemistry not given here) guide: CGCGAGCACAGCUAAGGCCAGUUUUAGAGCUAGAAAUAGCAAGUUAAAAUAAGGCUAGUCCGUUAUCAACUUGAAAAAGUGGCACCGAGUCGGUGCUUUU )
stdout: 117

stdin: # get_value(readout='off-target Site_Count', item= 4-CR004366: gRNA targeting B2M (Dharmacon); targeting domain CAGUAAGUCAACUUCAAUGU (SEQ ID NO: 111); sgRNA SEQ ID NO: 162 (nucleic acid, listed as RNA, chemistry not given here) guide: CAGUAAGUCAACUUCAAUGUGUUUUAGAGCUAGAAAUAGCAAGUUAAAAUAAGGCUAGUCCGUUAUCAACUUGAAAAAGUGGCACCGAGUCGGUGCUUUU )
stdout: 92

stdin: # get_value(readout='off-target Site_Count', item= CR000453: gRNA targeting B2M; targeting domain CACAGCCCAAGAUAGUUAAG (SEQ ID NO: 137); sgRNA SEQ ID NO: 174 (nucleic acid, listed as RNA, chemistry not given here) guide: CACAGCCCAAGAUAGUUAAGGUUUUAGAGCUAGAAAUAGCAAGUUAAAAUAAGGCUAGUCCGUUAUCAACUUGAAAAAGUGGCACCGAGUCGGUGCUUUU )
stdout: 82

stdin: # get_value(readout='off-target Site_Count', item= CR000446: gRNA targeting B2M; targeting domain AGGGUAGGAGAGACUCACGC (SEQ ID NO: 136); sgRNA SEQ ID NO: 173 (nucleic acid, listed as RNA, chemistry not given here) guide: AGGGUAGGAGAGACUCACGCGUUUUAGAGCUAGAAAUAGCAAGUUAAAAUAAGGCUAGUCCGUUAUCAACUUGAAAAAGUGGCACCGAGUCGGUGCUUUU )
stdout: 98
